These data points were gathered from the supplement of paper PMC12042874.

Assay: amyloid nucleation score (Sup35N fusion, yeast selection) (log enrichment); library NNK1; higher = more nucleation; inactive = no reads after selection;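 note: zero at mode of non-aggregating sequences after 7 days selection at 30°C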
# amyloid nucleation score per entry
// return just the number, without any unit appended

Some solved cases for reference:
>>> recordednumber("WSYMVL")
-0.645
>>> recordednumber("VLYGGDLALLSFDTGHPLFL")
0.297
>>> recordednumber("PMTVSNEFAPSILLSRALFW")
3.99
>>> recordednumber("LYGSVKNIKRLPHCFMLCLC")
0.616

Kindly consider the entry below.
Input: Could you please provide reported amyloid nucleation score for PTLMLAGG ? Thanks!
Output: -0.33

---

Assay: amyloid nucleation score (Sup35N fusion, yeast selection) (log enrichment); library NNK2; higher = more nucleation; inactive = no reads after selection
# amyloid nucleation score per entry
// return just the number, without any unit appended

Some solved cases for reference:
>>> recordednumber("LRTIEASLMGVSNLKKWSFI")
-0.299
>>> recordednumber("TSDITAVFNSFLKFR")
-0.744
>>> recordednumber("FLPYVIRRGWSCCPSGKWRN")
0.03

Input: Could you please provide reported amyloid nucleation score for KYFVINPLIPIGQMEDIKLL ? Thanks!
Output: -0.156

Input: Could you please provide reported amyloid nucleation score for TNMIMLFIRMGLRHGDKWAW ? Thanks!
Output: 2.54

Input: Could you please provide reported amyloid nucleation score for RSDVFIGTSIFGALSCV ? Thanks!
Output: -0.025

Input: Could you please provide reported amyloid nucleation score for IREYHMFDGHMRDRCFGQVK ? Thanks!
Output: -0.048

Input: Could you please provide reported amyloid nucleation score for TLYVVYLDEICYLLFKVSYC ? Thanks!
Output: 1.2

---

Experiment: amyloid nucleation score (Sup35N fusion, yeast selection) (log enrichment); library NNK3; higher = more nucleation; inactive = no reads after selection
quantityName: amyloid nucleation score

>>> result("SLRSYSGILSFYGYSGKIST")
"inactive"
>>> result("RSRNAIVLGACYC")
"inactive"
>>> result("CRCFLPWGWLV")
"inactive"
>>> result("CRYDKSSLDY")
"inactive"
>>> result("ISTDDKIIGST")
"inactive"

Input: Could you please provide reported amyloid nucleation score for FNWRLSSITDSSVYLPSWNL ? Thanks!
Output: inactive

Input: Could you please provide reported amyloid nucleation score for DRLRYNLWS ? Thanks!
Output: inactive

---

Test: amyloid nucleation score (Sup35N fusion, yeast selection) (log enrichment); library NNK1; higher = more nucleation; inactive = no reads after selection
# amyloid nucleation score per entry
// return just the number, without any unit appended

Input: Could you please provide reported amyloid nucleation score for ASGKYNRLCIGFVWGCEQGM ? Thanks!
Output: 2.12

Input: Could you please provide reported amyloid nucleation score for QDITPYWIVIGYD ? Thanks!
Output: -0.367

Input: Could you please provide reported amyloid nucleation score for GIIFGMKVGWK ? Thanks!
Output: 0.385

Input: Could you please provide reported amyloid nucleation score for NLLWCIVGTKPWKVLTTVNY ? Thanks!
Output: -0.28

Input: Could you please provide reported amyloid nucleation score for FLSTCGCFRKLGWVMCECLG ? Thanks!
Output: -0.19

Input: Could you please provide reported amyloid nucleation score for TPSLAEADCL ? Thanks!
Output: -0.909

Input: Could you please provide reported amyloid nucleation score for NCMLTECPGLHSNLMWSKWG ? Thanks!
Output: 1.5
